- target of assay: HCV NS5B RdRp genotype 1b (Hepatitis C virus genotype 1b)
- Construct: The protein was expressed with an 18 amino acid C-terminal truncation to enhance the solubility; made in house; host or cells: E. coli BL21 (DE3), pET21a
- assay info: Modified HCV NS5B RdRp enzyme assay (with preincubation)
- Type: biochemical
- test parameters: modified method (with preincubation)
pIC50: −log10 of the molar value.
Documented pIC50 across a set of molecules

Worked cases, pIC50 given:
molecule	measurement
COC(=O)c1ccc2c(C3CCCCC3)c3n(c2c1)C(O)c1cc(Cl)ccc1-3 (centres unmarked)	< 6.00
CC(C)(C)S(=O)(=O)NC(=O)c1ccc2c(C3CCCCC3)c3n(c2c1)CC(C(=O)N1CCOCC1)=Cc1ccccc1-3	6.00 to 7.70
O=C(O)c1ccc2c(C3CCCCC3)c3n(c2c1)CC(O)CNc1ccccc1-3 (centres unmarked)	6.00 to 7.70
COC(=O)c1ccc2c(C3CCCCC3)c3n(c2c1)CC(=O)N(CCN(C)C)c1ccccc1-3	< 6.00

// pIC50 (HCV NS5B RdRp genotype 1b (Hepatitis C virus genotype 1b)) for `COC(=O)c1ccc2c(C3CCCCC3)c3n(c2c1)CC(C(=O)N1CCOCC1)=Cc1cccnc1-3` = < 6.00

The value of pIC50 recorded for `O=C1Cn2c(c(C3CCCCC3)c3ccc(C(=O)NC4(C(=O)Nc5nccs5)CCCC4)cc32)-c2ccccc2N1` when tested on HCV NS5B RdRp genotype 1b (Hepatitis C virus genotype 1b) reads 6.00 to 7.70

pIC50 on HCV NS5B RdRp genotype 1b (Hepatitis C virus genotype 1b) for `COC(=O)C1=Cc2ccccc2-c2c(C3CCCCC3)c3ccc(C(=O)NS(=O)(=O)N(C)C)cc3n2C1` is 6.00 to 7.70

Simply: `CN(C)S(=O)(=O)NC(=O)c1ccc2c(C3CCCCC3)c3n(c2c1)CCCc1ncccc1-3` , HCV NS5B RdRp genotype 1b (Hepatitis C virus genotype 1b), pIC50 = 6.00 to 7.70

# value of pIC50, HCV NS5B RdRp genotype 1b (Hepatitis C virus genotype 1b), item `COc1ccc2c(c1)C=C(C(=O)N1CCOCC1)Cn1c-2c(C2CCCCC2)c2ccc(C(=O)NS(=O)(=O)N(C)C)cc21` = 6.00 to 7.70

The reported HCV NS5B RdRp genotype 1b (Hepatitis C virus genotype 1b) pIC50 of `CN(C)S(=O)(=O)NC(=O)c1ccc2c(C3CCCCC3)c3n(c2c1)CC(C(=O)N1CCOCC1)=Cc1ccncc1-3` is 6.00 to 7.70

---

- target of assay: HCV NS5B RdRp genotype 1b (Hepatitis C virus genotype 1b, UniProt Q9WMX2)
- Construct: The protein was expressed with an 18 amino acid C-terminal truncation to enhance the solubility; made in house; host or cells: E. coli BL21 (DE3), pET21a
- Sequence (Q9WMX2 2420-2992): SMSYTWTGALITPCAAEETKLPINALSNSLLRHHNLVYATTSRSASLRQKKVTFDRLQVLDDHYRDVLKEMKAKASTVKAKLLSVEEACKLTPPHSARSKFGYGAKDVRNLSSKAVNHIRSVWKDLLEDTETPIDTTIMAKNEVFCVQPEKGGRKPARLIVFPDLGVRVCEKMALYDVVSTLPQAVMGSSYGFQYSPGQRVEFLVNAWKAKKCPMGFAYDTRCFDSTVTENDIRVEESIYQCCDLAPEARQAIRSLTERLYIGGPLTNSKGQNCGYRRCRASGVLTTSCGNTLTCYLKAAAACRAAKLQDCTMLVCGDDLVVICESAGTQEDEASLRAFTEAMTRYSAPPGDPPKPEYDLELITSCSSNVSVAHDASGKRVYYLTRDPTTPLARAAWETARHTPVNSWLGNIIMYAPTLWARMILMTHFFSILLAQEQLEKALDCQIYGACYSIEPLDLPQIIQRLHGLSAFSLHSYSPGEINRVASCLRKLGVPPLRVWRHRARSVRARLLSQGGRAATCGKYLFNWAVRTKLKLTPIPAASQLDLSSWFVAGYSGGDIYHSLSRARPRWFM
- assay info: Modified HCV NS5B RdRp enzyme assay (with preincubation)
- Assay type: biochemical
- test parameters: modified method (with preincubation)
quantity: IC50

Reference set (5 entries):
compound	quantity	measurement
CN(C)CCN1C(=O)Cn2c(c(C3CCCCC3)c3ccc(C(=O)O)cc32)-c2ccccc21	IC50	20 to 1000 nM
CC(=O)N1CCn2c(c(C3CCCCC3)c3ccc(C(=O)NS(=O)(=O)N(C)C)cc32)-c2ccccc21	IC50	20 to 1000 nM
O=C1Cc2ccccc2-c2c(C3CCCCC3)c3ccc(C(=O)O)cc3n2C1	IC50	20 to 1000 nM
COC(=O)c1ccc2c(C3CCCCC3)c3n(c2c1)CC(C(=O)O)=C(C)c1ccccc1-3	IC50	> 1000 nM
O=C(O)/C=C/c1ccc2[nH]c(C3(NC(=O)c4ccc5c(C6CCCCC6)c6c7ccccc7ncn6c5c4)CCCC3)nc2c1	IC50	20 to 1000 nM

# compound O=C(O)c1ccc2c(C3CCCCC3)c3n(c2c1)CC(N1CCOCC1)Cc1ccccc1-3 (stereo not drawn) ; its IC50 = 20 to 1000 nM

Per the record, `O=C(O)c1ccc2c(C3CCCCC3)c3c4ccccc4ncn3c2c1` has IC50 of > 1000 nM

Briefly, IC50 measured for `O=C(O)/C=C/c1ccc(NC(=O)C2(NC(=O)c3ccc4c(C5CCCCC5)c5n(c4c3)CCCc3nccnc3-5)CCCC2)cc1` : 20 to 1000 nM

Lookup result for `Cn1cnc(S(=O)(=O)NC(=O)c2ccc3c(C4CCCCC4)c4n(c3c2)CCCc2ncccc2-4)c1` ; measured IC50: 20 to 1000 nM
